- TARGET_DESC: human histamine H3 receptors (full-length H3, isoform 445) (Homo sapiens, UniProt Q9Y5N1);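 note: scintillation counts read after the 1.5 hr incubation at room temperature with shaking, Imetit serving as reference control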
- Sequence (Q9Y5N1 whole entry, canonical isoform): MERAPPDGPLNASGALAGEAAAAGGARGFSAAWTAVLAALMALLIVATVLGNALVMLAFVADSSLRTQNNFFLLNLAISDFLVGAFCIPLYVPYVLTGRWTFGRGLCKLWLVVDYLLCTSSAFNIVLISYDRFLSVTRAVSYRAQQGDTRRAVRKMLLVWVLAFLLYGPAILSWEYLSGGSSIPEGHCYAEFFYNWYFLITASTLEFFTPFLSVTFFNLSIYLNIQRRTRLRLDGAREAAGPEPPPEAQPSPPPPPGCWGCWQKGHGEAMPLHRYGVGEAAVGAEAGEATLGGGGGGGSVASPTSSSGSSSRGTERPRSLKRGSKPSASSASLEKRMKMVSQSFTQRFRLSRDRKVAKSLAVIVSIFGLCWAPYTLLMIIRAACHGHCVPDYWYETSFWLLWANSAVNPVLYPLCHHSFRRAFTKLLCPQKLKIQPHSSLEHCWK
- CONDITION_DETAILS: hH3 binding IC50 (nM), inhibition of 1.4 nM [3H]-N-α-methylhistamine binding to CHO-K1 membranes expressing human H3, SPA, 1.5 hr
IC50 under 400 nM gets 1 (yes), anything at or over 400 nM gets 0 (no).

Examples from the recorded data:
# COMPOUND, GROUP_LABEL
data = [
    ("CC(C)N1CCN(C(=O)C2CC23CCN(C2CCOCC2)CC3)CC1 (stereo not drawn) [Example 10]", "1 (yes)"),
    ("COC(=O)c1ccc(N2CCC3(CC2)CC3C(=O)N2CCN(C3CCC3)CC2)cc1 (stereo not drawn)", "0 (no)"),
    ("COc1cccc(N2CCC3(CC2)CC3C(=O)N2CCN(C3CCC3)CC2)n1 (stereo not drawn)", "0 (no)"),
    ("CC(C)N1CCN(C(=O)C2CC23CCN(C2CCOCC2)CC3)CC1 (single isomer, unassigned) [Example 29]", "1 (yes)"),
]

Would you kindly look at the next entry?
## Task Given the entry CN1CCC(N2CCC3(CC2)CC3C(=O)N2CCN(C3CCCCC3)CC2)CC1 (stereo not drawn) , would its reported IC50 be below 400 nM?
## Result 1 (yes)
